- EXPERIMENTAL CONDITIONS: LPE = LogD(dec/w) – 1.06(ALogP) + 5.47
The label fulfilled is reserved for LPE strictly under -0.1; not fulfilled covers values equal to or above it.

The following compounds have reported results that may help.
SMILES TEXT: Cc1ncsc1-c1ccc(CNC(=O)[C@@H]2C[C@@H](O)CN2C(=O)[C@@H](NC(=O)COCCOCCNC(=O)C[C@@H]2N=C(c3ccc(Cl)cc3)c3c(sc(C)c3C)-n3c(C)nnc32)C(C)(C)C)cc1
CATEGORY LABEL: not fulfilled
//
SMILES TEXT: CC(=O)N[C@H](C(=O)N1C[C@H](O)C[C@H]1C(=O)NCc1ccc(-c2scnc2C)cc1)C(C)(C)SCCCCNC(=O)C[C@@H]1N=C(c2ccc(Cl)cc2)c2c(sc(C)c2C)-n2c(C)nnc21
CATEGORY LABEL: fulfilled
//
SMILES TEXT: Cc1ncsc1-c1ccc(CNC(=O)[C@@H]2C[C@@H](O)CN2C(=O)[C@@H](NC(=O)[C@H](Cc2ccccc2)NC(=O)COCCOCCOCCNC(=O)C[C@@H]2N=C(c3ccc(Cl)cc3)c3c(sc(C)c3C)-n3c(C)nnc32)C(C)(C)C)cc1
CATEGORY LABEL: fulfilled
//
SMILES TEXT: CC(=O)N[C@H](C(=O)N1C[C@H](O)C[C@H]1C(=O)NCc1ccc(-c2scnc2C)cc1)C(C)(C)SCCOCCNC(=O)C[C@@H]1N=C(c2ccc(Cl)cc2)c2c(sc(C)c2C)-n2c(C)nnc21
CATEGORY LABEL: fulfilled
//
SMILES TEXT: CC(=O)N1c2ccc(-c3ccc(C(=O)NCCOCCOCCOCCOCC(=O)N[C@H](C(=O)N4C[C@H](O)C[C@H]4C(=O)NCc4ccc(-c5scnc5C)cc4)C(C)(C)C)cc3)cc2[C@H](Nc2ccc(Cl)cc2)C[C@@H]1C
CATEGORY LABEL: not fulfilled
//
SMILES TEXT: CC(=O)N[C@H](C(=O)N1C[C@H](O)C[C@H]1C(=O)NCc1ccc(-c2scnc2C)cc1)C(C)(C)SCCOCCOCCNC(=O)C[C@@H]1N=C(c2ccc(Cl)cc2)c2c(sc(C)c2C)-n2c(C)nnc21
CATEGORY LABEL: fulfilled

Here is another compound to look at.
Ask | Is -0.1 strictly greater than the compound's reported LPE? compound: Cc1ncsc1-c1ccc(CNC(=O)[C@@H]2C[C@@H](O)CN2C(=O)[C@@H](NC(=O)Cc2ccccc2)C(C)(C)C)cc1
Reply | not fulfilled

---

- PROTOCOL: in vitro
- EXPERIMENTAL CONDITIONS: PAMPA, pH 7.4
READOUT: Papp (×10⁻⁶ cm/s)
Reply with just the number (in ×10⁻⁶ cm/s).

SMILES TEXT: Cc1ncsc1-c1ccc(CNC(=O)[C@@H]2C[C@@H](O)CN2C(=O)[C@@H](NC(=O)COCCOCCOCCOCCOCCOCC(=O)N[C@H](C(=O)N2C[C@H](O)C[C@H]2C(=O)NCc2ccc(-c3scnc3C)cc2)C(C)(C)C)C(C)(C)C)cc1
Papp / ×10⁻⁶ cm/s: 0.005

Here's the next entry for you.
Ask | Any idea what its Papp is? The compound is Cc1ncsc1-c1ccc(CNC(=O)[C@@H]2C[C@@H](O)CN2C(=O)[C@@H](NC(=O)COCCOCCOCCOCC(=O)N[C@H](C(=O)N2C[C@H](O)C[C@H]2C(=O)NCc2ccc(-c3scnc3C)cc2)C(C)(C)C)C(C)(C)C)cc1
Reply | 0.009

src = paper PMC7488288
